- subject-of-test: Rat A1 adenosine receptor (Rattus norvegicus, UniProt P25099)
- Construct: A1 adenosine receptors isolated from rats; from tissue
- Sequence (P25099 whole entry): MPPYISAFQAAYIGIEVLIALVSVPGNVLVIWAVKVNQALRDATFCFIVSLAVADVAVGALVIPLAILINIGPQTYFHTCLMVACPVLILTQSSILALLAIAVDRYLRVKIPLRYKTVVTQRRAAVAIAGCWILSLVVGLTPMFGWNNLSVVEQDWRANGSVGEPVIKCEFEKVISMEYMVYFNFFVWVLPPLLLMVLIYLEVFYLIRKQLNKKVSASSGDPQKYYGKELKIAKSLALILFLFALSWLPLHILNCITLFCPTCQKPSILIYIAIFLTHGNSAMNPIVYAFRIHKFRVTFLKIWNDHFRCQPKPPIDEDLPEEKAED
- test-name: Affinity for A1 adenosine receptors isolated from rats
- Format: binding
measurement-type: Ki (nM)

Before answering, review these 3 worked examples.
In [3]: df
Out[3]:
                                 smiles_str  measurement_type  quantitative_readout
0  NCCCNC(=O)Cc1ccc(NC(=O)Cc2ccc(Nc3ncnc4c3ncn4[C@@H]3O[C@H](CO)[C@@H](O)[C@H]3O)cc2)cc1                Ki                  1.96
1  Cc1ccc(C(=O)NCCCCNC(=O)Cc2ccc(NC(=O)Cc3ccc(Nc4ncnc5c4ncn5[C@@H]4O[C@H](CO)[C@@H](O)[C@H]4O)cc3)cc2)cc1                Ki                  7.95
2  Cc1ccc(C(=O)NCCCNC(=O)Cc2ccc(NC(=O)Cc3ccc(Nc4ncnc5c4ncn5[C@@H]4O[C@H](CO)[C@@H](O)[C@H]4O)cc3)cc2)cc1                Ki                  5.67

[I] NCCCCNC(=O)Cc1ccc(NC(=O)Cc2ccc(Nc3ncnc4c3ncn4[C@@H]3O[C@H](CO)[C@@H](O)[C@H]3O)cc2)cc1
[II] Cc1ccc(C(=O)NCCNC(=O)Cc2ccc(NC(=O)Cc3ccc(Nc4ncnc5c4ncn5[C@@H]4O[C@H](CO)[C@@H](O)[C@H]4O)cc3)cc2)cc1
Q. # returns the entry with the larger Ki; inputs I and II Answer format: the label of the selected item.
A. II
(II: 11.9 nM, I: 1.91 nM)
